system name: T1, Avi/HisMsIL18BPd (recombinant mouse IL-18BP with Avi and poly-His tags) (mouse, biotinylated with BirA on the Avi tag in some assays)
T1 chain: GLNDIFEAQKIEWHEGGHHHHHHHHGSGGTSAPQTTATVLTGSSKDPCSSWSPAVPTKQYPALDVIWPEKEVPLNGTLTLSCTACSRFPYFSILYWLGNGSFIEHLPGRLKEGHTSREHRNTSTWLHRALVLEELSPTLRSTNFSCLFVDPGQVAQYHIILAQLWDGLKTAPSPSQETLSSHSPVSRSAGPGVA
test summary: cell-based or functional assay
Recorded Fold change of IFNγ at 10 µg/ml vs baseline, mouse splenocytes by entry
Value expressed in fold; do not type the unit.

A selection of reference data follows.
binder	endpoint result
anti-IL18BP antibody BP-12 (antibody, human IgG1, V domains shown) VH: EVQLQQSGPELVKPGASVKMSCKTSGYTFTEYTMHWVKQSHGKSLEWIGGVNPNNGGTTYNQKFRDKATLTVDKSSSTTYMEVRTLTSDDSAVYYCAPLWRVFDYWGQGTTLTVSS VL: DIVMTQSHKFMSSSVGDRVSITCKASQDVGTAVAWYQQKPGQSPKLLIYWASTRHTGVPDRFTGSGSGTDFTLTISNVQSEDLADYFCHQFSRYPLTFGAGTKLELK	1.88
anti-IL18BP antibody BP-03 (antibody, human IgG1, V domains shown) VH: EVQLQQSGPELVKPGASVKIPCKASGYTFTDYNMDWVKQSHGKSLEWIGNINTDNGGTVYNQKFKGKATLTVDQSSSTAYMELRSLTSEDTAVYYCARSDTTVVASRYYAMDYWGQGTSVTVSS VL: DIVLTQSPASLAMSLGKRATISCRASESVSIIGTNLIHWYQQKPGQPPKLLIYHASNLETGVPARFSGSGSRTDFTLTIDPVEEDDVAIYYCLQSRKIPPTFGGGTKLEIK	5.93

Qu. // lookup Fold change of IFNγ at 10 µg/ml vs baseline, mouse splenocytes for anti-IL18BP antibody BP-13 (antibody, human IgG1, V domains shown) VH: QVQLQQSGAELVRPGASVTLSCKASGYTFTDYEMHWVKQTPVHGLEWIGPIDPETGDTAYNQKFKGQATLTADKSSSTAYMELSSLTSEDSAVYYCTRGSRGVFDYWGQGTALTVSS VL: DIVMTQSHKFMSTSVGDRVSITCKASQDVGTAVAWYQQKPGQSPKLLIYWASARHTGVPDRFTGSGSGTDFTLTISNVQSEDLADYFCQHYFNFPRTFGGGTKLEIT
Ans. 1.74

Attribution: patent US20250333523A1
